B1: HDV Ribozyme (parent)
chain: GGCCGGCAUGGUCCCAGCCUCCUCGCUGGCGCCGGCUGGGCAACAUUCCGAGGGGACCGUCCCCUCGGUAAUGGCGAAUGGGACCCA

# Variants of: B1
# test description: self-cleavage, relative activity (ratio to wild type); higher = more cleavage; co-transcriptional
Returns the class for an entry based on its self-cleavage. Class ranges: label 0 = under 0.1, label 1 = from 0.1 up to 0.5, label 2 = 0.5 and over

>  <sequence data>
GGCCGGCAUGGUCCCAGCCUCCUCGCUGGCGCCGGCUGGGCAACAUUCCGAGGGGACCGUCCCCUCUGUAGUGGCGAAUGGGACCCA [G67U A71G]

>  <label value>
label 2

$$$$
>  <sequence data>
GGCCGGCAUGGUCCCAGCCUCCUCGCUGGCGCCGGCUGGGCAACAUUCCGAGGGGACCGUACCCUCGGUAAUGGCAAAUGGGACCCA [C61A G76A]

>  <label value>
label 2

$$$$
>  <sequence data>
GGCCGGCAUGGUCCCUGCCUCCUCGCUGGCGCCGGCUGGGCAACGUUCCGAGGGGACCGUCCCCUCGGUAAUGGCGAAUGGGACCCA [A16U A45G]

>  <label value>
label 2

$$$$
>  <sequence data>
GGCCGGCAUGGUCCCAGCCUCCUCGCUGGCGACGGCUGGGCAACAUUCCGAGGGGACCGUCCCCUCGGUAAUGACGAAUGGGACCCA [C32A G74A]

>  <label value>
label 1

$$$$
>  <sequence data>
GGCCGGGAUGGUCCCAGCCUCCUCGCUGGCGCCGGCUGGGCAACAUUCCGAGGGGACCGUCCCCUCGGUAAUGGCGAAUUGGACCCA [C7G G80U]

>  <label value>
label 0

$$$$
>  <sequence data>
GACCGGCAUGGUCCCAGCCUCCUCGCUGGCGCCGGCUGGGCAACAUUCCGAGGGGACCGUCCCCUCGGUAAUGGGGAAUGGGACCCA [G2A C75G]

>  <label value>
label 0

$$$$
>  <sequence data>
GGCCGGCAUGGUCCCAGCCUCCUCGCUGGCGCCGGCUGGGCAACAUUCCGAGGGGACCGUCCCCUCGGUAAGGGCGAAUGGGACCCC [U72G A87C]

>  <label value>
label 2

$$$$
>  <sequence data>
GGCCGGCAUGGUCCCAGCCUCCUCGCUGGGGCCGGCUGGGCAACAUUCCGAGGGGACCGUCCCCUCGGUAAUGGCGAAUAGGACCCA [C30G G80A]

>  <label value>
label 1

$$$$
>  <sequence data>
GGCCGGCAUGGUCCCAGCCUCCUCGCUGGCGCCGGCCGGUCAACAUUCCGAGGGGACCGUCCCCUCGGUAAUGGCGAAUGGGACCCA [U37C G40U]

>  <label value>
label 1

$$$$
>  <sequence data>
GGACGGCAUGGUCCCAGCCUCCUCGCUGGCGCCGGCUGGGCAACAUUCCGAGGGGACCGUCCCCUCGGUAAUGGCGAAUGAGACCCA [C3A G81A]

>  <label value>
label 0

$$$$
>  <sequence data>
GGCCGGCAUGGACCCAGCCUCCUCGCUGGCGCCUGCUGGGCAACAUUCCGAGGGGACCGUCCCCUCGGUAAUGGCGAAUGGGACCCA [U12A G34U]

>  <label value>
label 1

$$$$
>  <sequence data>
GGCCGGCAUGGUCGCAGCCUCCUCGCUGGCGCCGGCUGGCCAACAUUCCGAGGGGACCGUCCCCUCGGUAAUGGCGAAUGGGACCCA [C14G G40C]

>  <label value>
label 0

$$$$
>  <sequence data>
GGGCGGCAUGGUCCUAGCCUCCUCGCUGGCGCCGGCUGGGCAACAUUCCGAGGGGACCGUCCCCUCGGUAAUGGCGAAUGGGACCCA [C3G C15U]

>  <label value>
label 2

$$$$
>  <sequence data>
GGCCUGCAUGGUCCCAGCCUCCUCGCUGGCGCCGGCUGGGCAACAUUCCGAGGGGACCGUCCCCUCGGUAAUGGGGAAUGGGACCCA [G5U C75G]

>  <label value>
label 1

$$$$
>  <sequence data>
GGCCGGCAUGGUCCCAGCCUCCUCGCUGGCGCCGGCUAGGCAACAUUCCGAGGGGACCGUCCCCUCGGUAAUGGCAAAUGGGACCCA [G38A G76A]

>  <label value>
label 1

$$$$
>  <sequence data>
GGCCGGCAUGGUCCCAGCCUCCUCGUUGGCGCCGUCUGGGCAACAUUCCGAGGGGACCGUCCCCUCGGUAAUGGCGAAUGGGACCCA [C26U G35U]

>  <label value>
label 2

$$$$
>  <sequence data>
GGCCGGCAUGGUGCCAGCCUCCUCGCUGGCGCCGGCUGGGCAACAUUCCGAGGGCACCGUCCCCUCGGUAAUGGCGAAUGGGACCCA [C13G G55C]

>  <label value>
label 1

$$$$
>  <sequence data>
GGCCGGCAUGGUCCCAGCCUCCUCGUUGGCGUCGGCUGGGCAACAUUCCGAGGGGACCGUCCCCUCGGUAAUGGCGAAUGGGACCCA [C26U C32U]

>  <label value>
label 2

$$$$
>  <sequence data>
GGCCGGCAUGGUCCCAGCCUCCUCGCUGGCGCCGGAUGGGCAACAUUCCGAGCGGACCGUCCCCUCGGUAAUGGCGAAUGGGACCCA [C36A G53C]

>  <label value>
label 0

$$$$
>  <sequence data>
GGCCGGCAUGAUCCCAGCCUCCUCGCUGGCGCCGGCUGGGCAACAUUCCGAGGGGACCGUCCCCUCGGUAAUCGCGAAUGGGACCCA [G11A G73C]

>  <label value>
label 0

$$$$
>  <sequence data>
GGCCGGCAUGGUCCCAGCCUCCUCGCUGGCGUCGGCUGGGCAACAUUCCGAGGCGACCGUCCCCUCGGUAAUGGCGAAUGGGACCCA [C32U G54C]

>  <label value>
label 2

$$$$

Provenance of the data: the RNAGym collection of RNA variant scans (doi:10.7554/elife.80360)
